Source: the supplement of paper PMC11061612

- Test system: Mo-T (Other Blood Carcinomas)
- TEST DETAILS: combination Emax (second highest fraction inhibited in the dose matrix, 72 h); higher = more inhibition; extreme values may be limits of the assay
ASSAY METRIC: combination Emax
// no unit string in output, number only

Query :: Can you share its combination Emax? I mean this compound: CS(=O)(=O)CCNCc1ccc(-c2ccc3ncnc(Nc4ccc(OCc5cccc(F)c5)c(Cl)c4)c3c2)o1 [Lapatinib] + Cn1cnc2c(F)c(Nc3ccc(Br)cc3Cl)c(C(=O)NOCCO)cc21 [Selumetinib] (first compound max 10 µM, 7x7, partner max 10 µM)
Result :: 0.477

Query :: Consider next the compound C=CCn1c(=O)c2cnc(Nc3ccc(N4CCN(C)CC4)cc3)nc2n1-c1cccc(C(C)(C)O)n1 [AZD1775] + Nc1ccn([C@@H]2O[C@H](CO)[C@@H](O)C2(F)F)c(=O)n1 [Gemcitabine] (first compound max 1 µM, partner max 0.3 µM) in the same way.
Result :: 0.766

Query :: Consider next the compound Cc1c2c(nn1C)CSCc1cc(n(C)n1)CSc1cc(c3ccccc3c1)OCCCc1c(C(=O)O)n(C)c3c-2c(Cl)ccc13 [AZD5991] + C1CN(CCC1(C(=O)N[C@@H](CCO)C2=CC=C(C=C2)Cl)N)C3=NC=NC4=C3C=CN4 [Capivasertib] (first compound max 1 µM, 7x7, partner max 3 µM) in the same way.
Result :: 0.281

Query :: Consider next the compound NC1(C(=O)N[C@@H](CCO)c2ccc(Cl)cc2)CCN(c2ncnc3[nH]ccc23)CC1 [Capivasertib] + Cn1cnc2c(F)c(Nc3ccc(Br)cc3Cl)c(C(=O)NOCCO)cc21 [Selumetinib] (first compound max 10 µM, 7x7, partner max 10 µM) in the same way.
Result :: 0.41

====

- Test system: MV-4-11 (Acute Myeloid Leukemia)
- TEST DETAILS: combination Emax (second highest fraction inhibited in the dose matrix, 72 h); higher = more inhibition; extreme values may be limits of the assay
I'd appreciate it if you could supply combination Emax values for the items below.
// no unit string in output, number only

Query :: Can you share its combination Emax? I mean this compound: COc1cc2c(cc1OCCCCCOc1cc3c(cc1OC)C(=O)N1C=C(C)C[C@H]1C=N3)N=C[C@@H]1CC(C)=CN1C2=O [SG3199] + O=C(c1cc(Cc2n[nH]c(=O)c3ccccc23)ccc1F)N1CCN(C(=O)C2CC2)CC1 [Olaparib] (first compound max 0.001 µM, 7x7, partner max 10 µM)
Result :: 0.402

Query :: Consider next the compound CC1(C)CCC(CN2CCN(c3ccc(C(=O)NS(=O)(=O)c4ccc(NCC5CCOCC5)c([N+](=O)[O-])c4)c(Oc4cnc5[nH]ccc5c4)c3)CC2)=C(c2ccc(Cl)cc2)C1 [Venetoclax] + CS(=O)(=O)CCNCc1ccc(-c2ccc3ncnc(Nc4ccc(OCc5cccc(F)c5)c(Cl)c4)c3c2)o1 [Lapatinib] (first compound max 1 µM, 7x7, partner max 10 µM) in the same way.
Result :: 1

Query :: Consider next the compound C=CCn1c(=O)c2cnc(Nc3ccc(N4CCN(C)CC4)cc3)nc2n1-c1cccc(C(C)(C)O)n1 [AZD1775] + O=C(c1cc(Cc2n[nH]c(=O)c3ccccc23)ccc1F)N1CCN(C(=O)C2CC2)CC1 [Olaparib] (first compound max 1 µM, partner max 10 µM) in the same way.
Result :: 0.978
